// provenance: PubChem BioAssay (NCI)

# Test system: MCF7 breast
# METHOD: NCI tumour cell line growth inhibition, 48 h
PROPERTY: TGI

Past entries and their recorded results:
[[record]]
compound = "CCOC(=O)CC/C(C)=N\\n1c(Cc2ccc(Cl)cc2)n[nH]c1=O"
readout_value = "> 100 µM"

[[record]]
compound = "O=C(N/N=C\\c1ccc([N+](=O)[O-])cc1)Nc1ccccc1"
readout_value = "> 100 µM"

[[record]]
compound = "CCS(=O)(=O)c1ccc(OC)c(Nc2ncc(-c3cccc(-c4ccccc4F)c3)o2)c1"
readout_value = "> 25 µM"

[[record]]
compound = "COC(OC)C1(c2ccccc2)Oc2ccccc2C1=O (stereo unspecified)"
readout_value = "> 100 µM"

[[record]]
compound = "Cc1c(NC(=O)CCCl)c(=O)oc2c(C)c3occc(=O)c3cc12"
readout_value = "> 100 µM"

[[record]]
compound = "O=C(c1ccsc1)c1cc2c(s1)C(=O)c1ccsc1C2=O"
readout_value = "0.383 µM"


Problem: Entry under review: C[CH2][Sn]1([CH2]C)[O]C2C(O)OC(CO)C(O)C2[O]1 (stereo unspecified) . Reported TGI?
Result: 79.5 µM

Problem: Another compound to look at: Oc1c(Cl)cc(C(c2cc(Cl)c(O)c(Cl)c2)C(c2cc(Cl)c(O)c(Cl)c2)c2cc(Cl)c(O)c(Cl)c2)cc1Cl
Result: 15.8 µM

Problem: Another: O=C(/C=C/c1ccccc1Cl)c1ccc(O)cc1
Result: 7.54 µM

Problem: Would you mind doing CCOC(=O)CSc1[nH]c2nc(C)nc(Cl)c2c1C#N as well?
Result: > 10 µM

Problem: Also NC(=O)c1cccc(N)c1 , if possible.
Result: > 100 µM
